system: hepatic CYP1A1 activity (ethoxyresorufin-O-deethylase, EROD); test: Hepatic EROD activity in hepatic microsomal fractions after single oral dose; format: in vivo, female C57BL/6 mice; conditions: relative to TCDD; dose metric Syst liver (ng/g lipid)
Mark each entry class 1 if its REP Liver EROD activity sits below 0.3, and class 0 for all others.

Clc1cc2c(cc1Cl)Oc1cc(Cl)c(Cl)cc1O2 [TCDD, 2,3,7,8-tetrachlorodibenzodioxin, reference compound] ... class 0
Clc1ccc(-c2cc(Cl)c(Cl)c(Cl)c2Cl)cc1Cl ... class 1
Clc1ccc(-c2cc(Cl)c(Cl)c(Cl)c2)cc1Cl ... class 1
Clc1ccc(-c2cc(Cl)c(Cl)cc2Cl)cc1Cl ... class 1
